- test: Noncompartmental pharmacokinetic parameters (Cmax, Tmax, AUC, Racc) in QD and BID cohorts of Form B
- Type: in vivo, human
- setup-conditions: human, plasma, oral, 650 mg, Compound III; 650 mg QD of Form B; Cohort 5; Day 29; read-out: AUClast (Median)
observed-property: AUC(0-t) (µg·h/mL)
Enter your answer as a number in µg·h/mL; do not include the unit.

Annotate the compound `O=C1NCC2(CCCCC2)n2c1cc1cnc(Nc3ccc(N4CCNCC4)cn3)nc12` with its measured AUC(0-t).
0.125

---

- test: Plasma concentration versus time of Compound I and metabolite Compound III in patients dosed QD or BID with Form B of Compound II plus fulvestrant
- Assay type: in vivo, human
- setup-conditions: human, plasma, oral, 150 mg, Cohort 7, 150 mg BID of Form B, Day 22; read-out: Trough Compound I Concentration, Median
observed-property: concentration at 22 day

For `CC(C)N1CCN(c2ccc(Nc3ncc4cc5n(c4n3)C3(CCCCC3)CNC5=O)nc2)CC1` , write its concentration at 22 day.
15.9 ng/mL

Taken from patent US11357779B2.
